System: SNB-75 CNS
protocol notes: NCI tumour cell line growth inhibition, 48 h; in the data active means GI50 below about 0.43 µM; inactive means the rest
Pick one and only one: active, inactive

Record excerpt, results attached:
> print(dat)
                                   compound  target.or.test.system  classification
1                CCn1c(-c2nonc2N)nc2ccncc21             SNB-75 CNS        inactive
2  N.N.N.N.N.O=S(=O)([O-])S(=O)(=O)[O-].[Co+3]             SNB-75 CNS        inactive
3  CC(C)Oc1ccc(C(=O)Cn2ccnc2)cc1-n1c(CN2CCN(C(=O)COc3ccc(Cl)cc3)CC2)nc2ccccc2c1=O             SNB-75 CNS        inactive
4  O=C1c2ccccc2-c2c1c1c(NCCCO)nc3ccccc3c1n2Cc1ccccc1             SNB-75 CNS        inactive

Please turn your attention to the following entry.
Just curious, what result did `Clc1ccc2c(c1)N(c1ncnc3ccc(-c4cnc5[nH]ncc5c4)cc13)CC2` get here?
active

Every entry's value here was drawn from PubChem BioAssay (NCI).
